Values from patent US20100145007A1

target: rat GPCR135 (rat, UniProt Q5Y987 29-469); experiment: autoradiography, displacement of 125I-R3/I5 from endogenous GPCR135 in rat brain sections
Sequence (Q5Y987 entry or part of it): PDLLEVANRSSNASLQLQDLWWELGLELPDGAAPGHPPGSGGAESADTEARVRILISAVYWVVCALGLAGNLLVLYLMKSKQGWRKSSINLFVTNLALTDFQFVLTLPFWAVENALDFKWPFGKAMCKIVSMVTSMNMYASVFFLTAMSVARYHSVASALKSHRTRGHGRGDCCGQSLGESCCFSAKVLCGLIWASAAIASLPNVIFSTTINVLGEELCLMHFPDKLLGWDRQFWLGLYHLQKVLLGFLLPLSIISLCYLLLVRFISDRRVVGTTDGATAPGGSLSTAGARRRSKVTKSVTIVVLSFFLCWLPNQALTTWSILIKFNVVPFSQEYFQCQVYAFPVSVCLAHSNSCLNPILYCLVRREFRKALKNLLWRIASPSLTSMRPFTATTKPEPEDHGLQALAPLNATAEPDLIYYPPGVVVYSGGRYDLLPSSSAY
assay readout: IC50 (pM)

binder: R3(BΔ23-27)R/I5 (N-terminal pyro-Glu ("<E"), Chimeric two-chain peptide; also called R3(Δ23-27)R/I5; R3(ΔB23-27)R/I5) chain 1: RAAPYGVRLCGREFIRAVIFTCR chain 2: EDLQTLCCTDGCSMTDLSALC
assay readout: IC50
test value: 400
